Experiment: PP2C Activity Assay: HAB1 and PYL proteins were expressed and purified as described in Park et al. ((2009) Science 324(5930):1068-1071), with minor modifications. To obtain GST-HAB1, the HAB1 cDNA was cloned into pGex-2T. Expression was conducted in BL21[DE3]pLysS host cells. Transformed cells were pre-cultured overnight, transferred to LB medium and cultured at 30° C. to culture A600 of ¿0.5.The culture was then cooled on ice and MnCl2 added to 4 mM and IPTG added to 0.3 mM. After 16 hours incubation at 15° C., cells were harvested and recombinant proteins were purified on glutathione agarose as described in Park et al. To obtain 6×His-PYL receptor fusion proteins, expression constructs previously described by Okamoto et al. 2013, (PNAS 110(29): 12132-12137) were used. ABA receptors were expressed and purified as described above.For the values shown in Table B5, PP2C activity assays using recombinant receptors and PP2Cs were carried out as follows: purified proteins were pre-incubated in 160 μl assay buffer containing 100 mM Tris-HCl-pH7.9, 100 mM NaCl, 3 μg bovine serum albumin, 0.1% 2-mercaptoethanol, 1 mM MnCl2 with ABA or agonists (compounds of the present invention) for 30 minutes at room temperature. Reactions were started by adding 40 μL of a reaction solution containing 25 mM 4-nitrophenyl phosphate in assay buffer after which absorbance measurements were immediately collected using a 405 nm on Wallac plate reader. Reactions contained 100 nM PP2C and 200 nM PYR/PYL proteins. […] For inferring IC50 values, calculations from receptor/PP2C assays containing different concentrations (ranging from 1 μM to 4 nM) were. The obtained dose response data was fit to a log (inhibitor) versus response-(variable slope) model using non-linear regression to infer the IC50s, using Graph Pad Prism 6.0.
pIC50: −log10 of the molar value.

COMPOUND: CCN1C(=O)CC(C)c2cc(NS(=O)(=O)Cc3ccc(C4CC4)cc3)ccc21 (stereo unspecified)
pIC50: 7.00
